Values compiled from ChEMBL document CHEMBL1212857.

assay: Metabolic stability in rat liver microsomes assessed as compound remaining after 60 mins by UPLC analysis; format: ADME, Microsome; details: read-out: Stability
readout-kind: remaining at 1 h (%)
# number only, unit % dropped from output

Fill in: remaining at 1 h of CO/N=C1/C=C(C#Cc2csc(C[18F])n2)CCC1 is ___
93

* * *

test: Lipophilicity, log D of the compound at pH 7.4 by shake flask method; type: physicochemical; settings: buffer
readout-kind: logD

Query (compound): CO/N=C1/C=C(C#Cc2csc(C[18F])n2)CCC1 ; field requested: logD
1.6

* * *

target: Metabotropic glutamate receptor 5 (Rattus norvegicus, UniProt P31424)
Sequence (P31424 whole entry): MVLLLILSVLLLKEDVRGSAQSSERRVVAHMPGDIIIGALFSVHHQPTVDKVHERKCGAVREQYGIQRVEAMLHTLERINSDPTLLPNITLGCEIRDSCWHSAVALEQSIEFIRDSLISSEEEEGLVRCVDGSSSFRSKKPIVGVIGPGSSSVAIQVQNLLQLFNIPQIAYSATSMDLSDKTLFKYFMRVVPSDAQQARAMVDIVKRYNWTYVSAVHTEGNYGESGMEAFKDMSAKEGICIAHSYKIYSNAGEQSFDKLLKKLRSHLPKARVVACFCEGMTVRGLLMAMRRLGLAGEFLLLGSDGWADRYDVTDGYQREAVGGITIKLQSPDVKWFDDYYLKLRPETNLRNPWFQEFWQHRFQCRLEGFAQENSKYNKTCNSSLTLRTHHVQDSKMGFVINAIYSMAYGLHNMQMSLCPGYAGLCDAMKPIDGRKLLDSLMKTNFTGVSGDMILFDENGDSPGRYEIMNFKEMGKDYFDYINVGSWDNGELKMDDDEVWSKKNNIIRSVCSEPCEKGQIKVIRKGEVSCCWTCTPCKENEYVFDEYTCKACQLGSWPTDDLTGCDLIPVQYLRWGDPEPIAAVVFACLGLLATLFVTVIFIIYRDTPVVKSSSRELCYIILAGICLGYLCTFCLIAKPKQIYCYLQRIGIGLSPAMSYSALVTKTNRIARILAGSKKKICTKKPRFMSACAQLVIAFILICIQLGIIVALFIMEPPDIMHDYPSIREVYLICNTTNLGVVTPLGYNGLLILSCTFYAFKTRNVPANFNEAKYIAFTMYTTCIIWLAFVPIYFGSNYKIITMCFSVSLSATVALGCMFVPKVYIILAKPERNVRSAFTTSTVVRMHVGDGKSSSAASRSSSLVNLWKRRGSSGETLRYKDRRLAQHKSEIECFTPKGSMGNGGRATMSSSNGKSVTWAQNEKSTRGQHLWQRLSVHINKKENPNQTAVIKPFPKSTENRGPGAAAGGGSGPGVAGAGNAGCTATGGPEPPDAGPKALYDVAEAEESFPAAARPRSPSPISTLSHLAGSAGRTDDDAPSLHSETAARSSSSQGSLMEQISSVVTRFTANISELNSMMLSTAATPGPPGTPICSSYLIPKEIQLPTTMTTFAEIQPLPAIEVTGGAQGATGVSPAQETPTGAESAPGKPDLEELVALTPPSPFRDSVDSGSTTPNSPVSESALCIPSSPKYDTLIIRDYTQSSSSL
Listing of recorded Ki by entry.
Please reply with the bare figure in nM and do not write the unit itself.

- compound-smiles: "FCCOCCO/N=C1/C=C(C#Cc2cscn2)CCC1"
  readout-kind: "Ki"
  observed-measurement: 36

I'm curious: which Ki was measured for CO/N=C1/C=C(C#Cc2nccs2)CCC1 tested on Metabotropic glutamate receptor 5 (Rattus norvegicus, UniProt P31424)?
20.3
